Recorded measurements of Emax, one per entry
# Tgt: Neurotensin receptor type 1 (Homo sapiens)
# Sequence (P30989 whole entry): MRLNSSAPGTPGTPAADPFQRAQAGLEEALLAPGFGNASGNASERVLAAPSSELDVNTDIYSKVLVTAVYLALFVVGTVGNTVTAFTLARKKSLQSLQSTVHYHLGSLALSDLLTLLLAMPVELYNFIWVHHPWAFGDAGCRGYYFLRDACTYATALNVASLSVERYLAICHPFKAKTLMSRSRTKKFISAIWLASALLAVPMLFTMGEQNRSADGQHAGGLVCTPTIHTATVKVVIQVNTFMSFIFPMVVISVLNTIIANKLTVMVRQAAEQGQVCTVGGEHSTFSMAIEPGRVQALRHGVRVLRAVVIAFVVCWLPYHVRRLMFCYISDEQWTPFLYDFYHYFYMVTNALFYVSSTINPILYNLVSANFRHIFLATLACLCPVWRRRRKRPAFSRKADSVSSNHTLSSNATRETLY
# Assay Details: Agonist activity at human NTS1 expressed in HEK293 cells co-expressing Galphaq/RlucII/GFP10-Ggamma1/Gbeta1 assessed as increase in Gq activation incubated for 10 mins in presence of coelenterazine 400A by BRET assay relative to NT (8-13)
# Format: cell-based
Numbered stars: 1 amine (or outer) side, 2 acyl side, 3 side chain; on linkers, the order of the positions; unused ones are H or OH. Square brackets hold non-standard residues; d marks the D form. Peptide text beside a SMILES is read from it. X1 = O=C1[C@@H](N[*:1])Cc2ccccc2CN1CCC(=O)[*:2]; Dmt = Cc1cc(O)cc(C)c1C[C@H](N)C(=O)O; mTyr = N[C@@H](Cc1cccc(O)c1)C(=O)O; Tle = CC(C)(C)[C@H](N)C(=O)O; β3hK = NCCCC[C@H](N)CC(=O)O
Numeric only. Scale: %

These solved cases illustrate the format of a correct answer.
- Cc1cc(O)cc(C)c1C[C@H](N)C(=O)N[C@H](CCCNC(=N)N)C(=O)N[C@H]1Cc2ccccc2CN(CCC(=O)N[C@@H](CCCCN)C(=O)N[C@@H](CCCCN)C(=O)N2CCC[C@H]2C(=O)N[C@@H](Cc2ccc(O)cc2)C(=O)N[C@H](C(=O)N[C@@H](CC(C)C)C(=O)O)C(C)(C)C)C1=O (H-[Dmt][dR][X1]KKPY[Tle]L-OH): 99
- Cc1cc(O)cc(C)c1C[C@H](NC(=O)[C@@H]1CCCN1C(=O)[C@H](CCCCN)NC(=O)[C@H](CCCCN)NC(=O)CCN1Cc2ccccc2C[C@H](NC(=O)[C@@H](CCCNC(=N)N)NC(=O)[C@@H](N)Cc2c(C)cc(O)cc2C)C1=O)C(=O)N[C@H](C(=O)N[C@@H](CC(C)C)C(=O)O)C(C)(C)C (H-[Dmt][dR][X1]KKP[Dmt][Tle]L-OH): 109
- CC(C)C[C@H](NC(=O)[C@@H](NC(=O)[C@H](Cc1ccc(O)cc1)NC(=O)[C@@H]1CCCN1C(=O)[C@H](CCCNC(=N)N)NC(=O)[C@@H](N)CCCNC(=N)N)C(C)(C)C)C(=O)O: 97

query: Output measured Emax for this item: Cc1cc(O)cc(C)c1C[C@H](N)C(=O)N[C@H](CCCNC(=N)N)C(=O)N[C@H]1Cc2ccccc2CN(CCC(=O)N[C@@H](CCCCN)C(=O)N[C@@H](CCCCN)C(=O)N2CCC[C@H]2C(=O)N[C@@H](Cc2cccc(O)c2)C(=O)N[C@H](C(=O)N[C@@H](CC(C)C)C(=O)O)C(C)(C)C)C1=O (H-[Dmt][dR][X1]KKP[mTyr][Tle]L-OH)
result: 90

query: Output measured Emax for this item: Cc1cc(O)cc(C)c1C[C@H](NC(=O)[C@@H]1CCCN1C(=O)[C@H](CCCCN)NC(=O)C[C@H](CCCCN)NC(=O)CCN1Cc2ccccc2C[C@H](NC(=O)[C@@H](CCCNC(=N)N)NC(=O)[C@@H](N)Cc2c(C)cc(O)cc2C)C1=O)C(=O)N[C@H](C(=O)N[C@@H](CC(C)C)C(=O)O)C(C)(C)C (H-[Dmt][dR][X1][β3hK]KP[Dmt][Tle]L-OH)
result: 112

###

# Tgt: Delta-type opioid receptor (Homo sapiens)
# Sequence (P41143 whole entry): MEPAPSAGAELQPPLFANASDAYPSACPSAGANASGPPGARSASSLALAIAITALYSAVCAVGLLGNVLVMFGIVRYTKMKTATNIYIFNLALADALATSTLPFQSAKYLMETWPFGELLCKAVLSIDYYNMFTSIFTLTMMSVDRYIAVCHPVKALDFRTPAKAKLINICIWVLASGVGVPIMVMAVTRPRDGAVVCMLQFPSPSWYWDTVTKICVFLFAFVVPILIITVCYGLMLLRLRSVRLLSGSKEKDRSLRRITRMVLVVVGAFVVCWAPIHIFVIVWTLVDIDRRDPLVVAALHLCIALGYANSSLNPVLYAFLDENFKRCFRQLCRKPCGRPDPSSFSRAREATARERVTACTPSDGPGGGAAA
# Assay Details: Displacement of [3H]-Diprenorphine from recombinant human delta opioid receptor expressed in CHO cell membrane incubated for 60 mins by liquid scintillation counting method
Numbered stars: 1 amine (or outer) side, 2 acyl side, 3 side chain; on linkers, the order of the positions; unused ones are H or OH. Square brackets hold non-standard residues; d marks the D form. Peptide text beside a SMILES is read from it. X1 = O=C1[C@@H](N[*:1])Cc2ccccc2CN1CCC(=O)[*:2]; X2 = O=C([C@@H]1Cc2cc(O)ccc2CN1[*:1])[*:2]; Dmt = Cc1cc(O)cc(C)c1C[C@H](N)C(=O)O; mTyr = N[C@@H](Cc1cccc(O)c1)C(=O)O; Tle = CC(C)(C)[C@H](N)C(=O)O
Readout Type: Ki (nM)
Numeric only. Scale: nM

These solved cases illustrate the format of a correct answer.
* Cc1cc(O)cc(C)c1C[C@H](N)C(=O)N[C@H](CCCNC(=N)N)C(=O)N[C@H]1Cc2ccccc2CN(CCC(=O)N[C@@H](CCCNC(=N)N)C(=O)N[C@@H](CCCNC(=N)N)C(=O)N2CCC[C@H]2C(=O)N[C@@H](Cc2cccc(O)c2)C(=O)N[C@H](C(=O)N[C@@H](CC(C)C)C(=O)O)C(C)(C)C)C1=O (H-[Dmt][dR][X1]RRP[mTyr][Tle]L-OH) | 60.9
* Cc1cc(O)cc(C)c1C[C@H](N)C(=O)N[C@H](CCCNC(=N)N)C(=O)N[C@H]1Cc2ccccc2CN(CCC(=O)N[C@@H](CCCCN)C(=O)N[C@@H](CCCCN)C(=O)N2CCC[C@H]2C(=O)N2Cc3ccc(O)cc3C[C@H]2C(=O)N[C@H](C(=O)N[C@@H](CC(C)C)C(=O)O)C(C)(C)C)C1=O (H-[Dmt][dR][X1]KKP[X2][Tle]L-OH) | 209

Pending molecule:
query: Output measured Ki for this item: Cc1cc(O)cc(C)c1C[C@H](NC(=O)[C@@H]1CCCN1C(=O)[C@H](CCCCN)NC(=O)[C@H](CCCCN)NC(=O)CCN1Cc2ccccc2C[C@H](NC(=O)[C@@H](CCCNC(=N)N)NC(=O)[C@@H](N)Cc2c(C)cc(O)cc2C)C1=O)C(=O)N[C@H](C(=O)N[C@@H](CC(C)C)C(=O)O)C(C)(C)C (H-[Dmt][dR][X1]KKP[Dmt][Tle]L-OH)
result: 276

###

# Tgt: Kappa-type opioid receptor (Homo sapiens)
# Sequence (P41145 whole entry): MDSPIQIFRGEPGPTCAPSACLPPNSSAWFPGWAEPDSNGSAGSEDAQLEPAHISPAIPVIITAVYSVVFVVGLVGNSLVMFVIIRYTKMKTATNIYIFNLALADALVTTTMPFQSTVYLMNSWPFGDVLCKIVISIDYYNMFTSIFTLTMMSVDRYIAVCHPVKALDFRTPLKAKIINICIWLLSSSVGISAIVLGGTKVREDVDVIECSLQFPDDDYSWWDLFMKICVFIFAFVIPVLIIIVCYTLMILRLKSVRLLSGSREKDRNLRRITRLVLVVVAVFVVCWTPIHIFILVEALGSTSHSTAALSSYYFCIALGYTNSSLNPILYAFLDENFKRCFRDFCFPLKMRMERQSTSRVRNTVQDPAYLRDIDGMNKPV
# Assay Details: Agonist activity at human KOR stably expressed in CHO cell membranes assessed as stimulation of [35S]-GTPgammaS binding incubated for 1 hr by liquid scintillation counting assay
Numbered stars: 1 amine (or outer) side, 2 acyl side, 3 side chain; on linkers, the order of the positions; unused ones are H or OH. Square brackets hold non-standard residues; d marks the D form. Peptide text beside a SMILES is read from it. X1 = O=C1[C@@H](N[*:1])Cc2ccccc2CN1CCC(=O)[*:2]; Dmt = Cc1cc(O)cc(C)c1C[C@H](N)C(=O)O; Tle = CC(C)(C)[C@H](N)C(=O)O
Readout Type: pEC50
Friendly reminder that pEC50 comes from taking -log10 of the concentration in mol/L.

query: Output measured pEC50 for this item: Cc1cc(O)cc(C)c1C[C@H](N)C(=O)N[C@H](CCCNC(=N)N)C(=O)N[C@H]1Cc2ccccc2CN(CCC(=O)N[C@@H](CCCCN)C(=O)N[C@@H](CCCCN)C(=O)N2CCC[C@H]2C(=O)N[C@@H](Cc2ccc(O)cc2)C(=O)N[C@H](C(=O)N[C@@H](CC(C)C)C(=O)O)C(C)(C)C)C1=O (H-[Dmt][dR][X1]KKPY[Tle]L-OH)
result: 5.78

###

# Tgt: UniProt:P35372
# Sequence (P35372 whole entry): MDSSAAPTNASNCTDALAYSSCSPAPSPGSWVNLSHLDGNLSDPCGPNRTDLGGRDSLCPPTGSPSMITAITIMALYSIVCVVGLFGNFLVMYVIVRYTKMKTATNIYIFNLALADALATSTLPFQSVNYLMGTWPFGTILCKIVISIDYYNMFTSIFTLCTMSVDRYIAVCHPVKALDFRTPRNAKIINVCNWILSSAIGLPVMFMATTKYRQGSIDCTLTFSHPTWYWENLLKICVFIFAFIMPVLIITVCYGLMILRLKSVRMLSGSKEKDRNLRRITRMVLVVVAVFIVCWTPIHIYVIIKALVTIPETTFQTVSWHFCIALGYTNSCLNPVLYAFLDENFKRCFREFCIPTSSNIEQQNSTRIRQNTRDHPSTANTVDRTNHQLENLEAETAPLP
# Assay Details: Agonist activity at human MOR expressed in human U2OS cells assessed as increase in beta arrestin2 recruitment incubated for 90 mins by pathhunter beta-arrestin assay
# Type: cell-based
Numbered stars: 1 amine (or outer) side, 2 acyl side, 3 side chain; on linkers, the order of the positions; unused ones are H or OH. Square brackets hold non-standard residues; d marks the D form. Peptide text beside a SMILES is read from it. X1 = O=C1[C@@H](N[*:1])Cc2ccccc2CN1CCC(=O)[*:2]; X2 = O=C([C@@H]1Cc2cc(O)ccc2CN1[*:1])[*:2]; Dmt = Cc1cc(O)cc(C)c1C[C@H](N)C(=O)O; mTyr = N[C@@H](Cc1cccc(O)c1)C(=O)O; β3hR = N=C(N)NCCC[C@H](N)CC(=O)O; Tle = CC(C)(C)[C@H](N)C(=O)O
// NB: equality with 1 µM counts as false (0); only EC50 strictly below is true (1)

Solved cases (5 shown):
- Cc1cc(O)cc(C)c1C[C@H](NC(=O)[C@@H]1CCCN1C(=O)[C@H](CCCNC(=N)N)NC(=O)C[C@H](CCCNC(=N)N)NC(=O)CCN1Cc2ccccc2C[C@H](NC(=O)[C@@H](CCCNC(=N)N)NC(=O)[C@@H](N)Cc2c(C)cc(O)cc2C)C1=O)C(=O)N[C@H](C(=O)N[C@@H](CC(C)C)C(=O)O)C(C)(C)C (H-[Dmt][dR][X1][β3hR]RP[Dmt][Tle]L-OH): false (0)
- Cc1cc(O)cc(C)c1C[C@H](N)C(=O)N[C@H](CCCCN)C(=O)N[C@@H](Cc1ccccc1)C(=O)N[C@@H](Cc1ccccc1)C(=O)N[C@@H](CCCCN)C(=O)N[C@@H](CCCCN)C(=O)N1CCC[C@H]1C(=O)N[C@@H](Cc1ccccc1)C(=O)N[C@H](C(=O)N[C@@H](CC(C)C)C(=O)O)C(C)(C)C (H-[Dmt][dK]FFKKPF[Tle]L-OH): true (1)
- Cc1cc(O)cc(C)c1C[C@H](N)C(=O)N[C@H](CCCNC(=N)N)C(=O)N[C@H]1Cc2ccccc2CN(CCC(=O)N[C@@H](CCCNC(=N)N)C(=O)N[C@@H](CCCNC(=N)N)C(=O)N2CCC[C@H]2C(=O)N2Cc3ccc(O)cc3C[C@H]2C(=O)N[C@H](C(=O)N[C@@H](CC(C)C)C(=O)O)C(C)(C)C)C1=O (H-[Dmt][dR][X1]RRP[X2][Tle]L-OH): true (1)
- Cc1cc(O)cc(C)c1C[C@H](N)C(=O)N[C@H](CCCNC(=N)N)C(=O)N[C@H]1Cc2ccccc2CN(CCC(=O)N[C@@H](CCCCN)C(=O)N[C@@H](CCCCN)C(=O)N2CCC[C@H]2C(=O)N[C@@H](Cc2cccc(O)c2)C(=O)N[C@H](C(=O)N[C@@H](CC(C)C)C(=O)O)C(C)(C)C)C1=O (H-[Dmt][dR][X1]KKP[mTyr][Tle]L-OH): false (0)
- Cc1cc(O)cc(C)c1C[C@H](N)C(=O)N[C@H](CCCNC(=N)N)C(=O)N[C@H]1Cc2ccccc2CN(CCC(=O)N[C@@H](CCCNC(=N)N)C(=O)N[C@@H](CCCNC(=N)N)C(=O)N2CCC[C@H]2C(=O)N[C@@H](Cc2ccc(O)cc2)C(=O)N[C@H](C(=O)N[C@@H](CC(C)C)C(=O)O)C(C)(C)C)C1=O (H-[Dmt][dR][X1]RRPY[Tle]L-OH): false (0)

Okay, now this compound:
query: Regarding Cc1cc(O)cc(C)c1C[C@H](NC(=O)[C@@H]1CCCN1C(=O)[C@H](CCCNC(=N)N)NC(=O)[C@H](CCCNC(=N)N)NC(=O)CCN1Cc2ccccc2C[C@H](NC(=O)[C@@H](CCCNC(=N)N)NC(=O)[C@@H](N)Cc2c(C)cc(O)cc2C)C1=O)C(=O)N[C@H](C(=O)N[C@@H](CC(C)C)C(=O)O)C(C)(C)C (H-[Dmt][dR][X1]RRP[Dmt][Tle]L-OH) , kindly confirm whether its EC50 is beneath 1 µM.
result: false (0)
